Target or system human PDE9 (PDE9A2) (Homo sapiens (Human)); recorded quantity Ki.
Your answer should be a plain number; it is taken to be in nM.

Sure, the documented Ki for N#Cc1c(N2CC[C@@H](n3cccn3)C2)c2ccccc2[nH]c1=O [Example 1-7] is 7.5

Sure, the documented Ki for N#Cc1c(NCCC2COC2)c2ccccc2[nH]c1=O [Example 1-12] is 71.1

Sure, the documented Ki for CC1(C)CCN(c2c(C#N)c(=O)[nH]c3ccccc23)CC1 [Example 1-11] is 26.3

Sure, the documented Ki for N#Cc1c(N2CCCCCC2)c2ccccc2[nH]c1=O [Example 1-8] is 18
